tested on: E. coli TESEC Alr+ wild-type control; assay: growth (OD600 after 10 h); higher = more growth (less inhibition); settings: compound 0.1 mM; raw OD600 reference: median of DMSO wells 0.49, cell-free background 0.052
Where a name gives a salt, the structure may show the parent alone.
Give yes (1) when the value for growth is at least 0.5. Give no (0) when it is less.

compound	class-name
COc1ccc2cc(CCC(C)=O)ccc2c1 [Nabumetone]	no (0)
Nc1ncnc2c1ncn2[C@@H]1O[C@H](CO)[C@@H](O)[C@@H]1O [Vidarabine]	yes (1)
CCCCCCCCCCCCCCCC[N+](C)(C)CCN(Cc1ccc(OC)cc1)c1ncccn1 [Thonzonium bromide]	no (0)
CCOC(=O)c1ccc(N)cc1 [Benzocaine]	no (0)
CCC1NC(=O)c2cc(S(N)(=O)=O)c(Cl)cc2N1 (stereo not drawn) [Quinethazone]	no (0)
C[C@H]1C[C@@H]2[C@H]([C@@H](O)C[C@@]3(C)[C@H]2CC[C@]3(O)C(=O)CO)[C@@]2(C)C=CC(=O)C=C12 [Methylprednisolone, 6-alpha]	no (0)
CNC(=O)c1c(I)c(C(=O)NCC(=O)Nc2c(I)c(C(=O)O)c(I)c(C(=O)NCCO)c2I)c(I)c(N(C)C(C)=O)c1I [Ioxaglic acid]	yes (1)
CCc1nn(CCCN2CCN(c3cccc(Cl)c3)CC2)c(=O)n1CCOc1ccccc1 [Nefazodone HCl]	no (0)
CC1(C)OC(=O)NC1=O [Dimethadione]	yes (1)
COc1cc(NS(=O)(=O)c2ccc(N)cc2)nc(OC)n1 [Sulfadimethoxine]	no (0)
COc1ccc(Cl)cc1C(=O)NCCc1ccc(S(=O)(=O)NC(=O)NC2CCCCC2)cc1 [Glibenclamide]	no (0)
CN(C)CCOC(c1ccc(Cl)cc1)c1ccccn1 (stereo not drawn) [Carbinoxamine maleate salt]	no (0)
CCC(C)(C)C(=O)O[C@H]1C[C@@H](C)C=C2C=C[C@H](C)[C@H](CC[C@@H]3C[C@@H](O)CC(=O)O3)[C@H]21 [Simvastatin]	no (0)
CC[C@H](C)C(=O)O[C@H]1C[C@@H](C)C=C2C=C[C@H](C)[C@H](CC[C@@H]3C[C@@H](O)CC(=O)O3)[C@H]21 [Lovastatin]	no (0)
